target: T1, human CD137-human Fc chimeric protein (Acro Biosystems cat no. 41B-H5258) (human, UniProt Q07011 24-186); test: BLI (Octet RED384), CD137-Fc on Protein G sensors, 1:1 model
T1 construct: Bought protein; The Octet Protein G and Biacore experiments name no catalogue number; also called human CD137Fc recombinant protein; human CD137-Fc recombinant protein; not shown: human IgG1 Fc tag
pKd: −log10 of the molar value.
PROPERTY_LABEL: pKd

INSERT INTO assay_data (binder, reported_measurement) VALUES
  ('Humabody VH 1.1 (VHH, human single VH domain; also called single domain antibody 1.1) VH: EVQLVESGGGLVQPGGSLRLSCAASGFTFSSHWMTWFRQAPGKGLEWVAHIKEDGSEKYYEDSVEGRFTVSRDNAKNSVYLQMNSLRAEDTAVYYCARGGDGYSDSHFGVDVWGQGTTVTVSSHHHHHH', 9.47),
  ('Humabody VH 1.39 (VHH, human single VH domain) VHH: EVQLVESGGGLVQPGGSLRLSCAASGFTFSNYWMNWVRQAPGKELEWVANINQDESEKYYVDSVKGRFTVSRDNAKNSLFLQMNSLRADDTAVYYCARGGFGYGDSHFGMDVWGQGTTVTVSS', 9.05);

(I) Humabody VH 2.14 (VHH, human single VH domain) VH: EVQLVESGGGLVKPGGSLRLSCAASGFTFSDYYMTWFRQAPGKGLEWISYISGSGDTIDYAESVKGRFTISRDNAKNSLYLQMNSLRAEDTAVYYCAREDIRMPGTTDFDHWGQGTLVTVSSHHHHHH
(II) Humabody VH 1.71 (VHH, human single VH domain) VHH: EVQLVESGGGLVQPGGSLRLSCAASGFTFGNYWMIWVRQAPGKELEWLANINQNGSERYYVDSVQGRFTISRDNAKNSLYLQMNSLRAEDTAVYYCARGGADYSNSHYGMDVSGQGTTVTVSS
Of I and II , which carries the smaller reported pKd figure? Your choice should be expressed through its label. I
(I: 9.02, II: 10.04)
